Field: pIC50. Provide a value for each of the compounds that follow.
assay: Inhibitory activity against stromelysin.
One number for each entry, as −log10 of the molar value.

COc1ccc(CN2C(=O)[C@H](CS)NC(=O)[C@@H]2CC2CCCCC2)cc1 :: 5.42
COc1ccc(CSC[C@H]2C(=O)N[C@@H](CS)C(=O)N2Cc2ccc(OC)cc2)cc1 :: 5.96

Now for a further compound.
Problem: Name the reported pIC50 value associated with the compound COc1ccc(CN2C(=O)[C@H](CS)NC(=O)[C@@H]2Cc2ccccc2)cc1
Solution: 5.40

* * *

Exercise: for every item that follows, state its recorded pIC50.
Target: UniProt P03956
Sequence (P03956 whole entry): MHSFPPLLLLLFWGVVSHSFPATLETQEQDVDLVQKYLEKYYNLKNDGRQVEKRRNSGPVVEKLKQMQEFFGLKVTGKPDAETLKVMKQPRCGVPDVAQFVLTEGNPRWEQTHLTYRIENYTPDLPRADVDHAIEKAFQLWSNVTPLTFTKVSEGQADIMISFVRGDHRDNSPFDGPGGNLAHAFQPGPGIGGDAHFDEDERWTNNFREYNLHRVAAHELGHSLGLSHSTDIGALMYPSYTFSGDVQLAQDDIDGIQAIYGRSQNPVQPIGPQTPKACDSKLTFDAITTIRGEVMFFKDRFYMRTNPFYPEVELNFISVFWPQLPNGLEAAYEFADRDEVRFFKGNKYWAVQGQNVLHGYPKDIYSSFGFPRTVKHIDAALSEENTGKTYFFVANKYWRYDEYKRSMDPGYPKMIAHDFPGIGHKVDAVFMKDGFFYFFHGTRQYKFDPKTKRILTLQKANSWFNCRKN
Test: Inhibitory activity against Matrix metalloprotease-1
Numbers only, as −log10 of the molar value.

CCCCOc1ccc(C(C(=O)NC(C)(C)C)N2C(=O)[C@H](CS)NC(=O)[C@@H]2Cc2ccc([N+](=O)[O-])cc2)cc1 (stereo partly specified) :: 7.14
CC(C)CC(C(=O)NC(C)(C)C)N1C(=O)[C@H](CS)NC(=O)[C@@H]1Cc1ccc([N+](=O)[O-])cc1 (stereo partly specified) :: 7.62
CCc1ccc(C(C(=O)NC(C)(C)C)N2C(=O)[C@H](CS)NC(=O)[C@@H]2Cc2ccc([N+](=O)[O-])cc2)cc1 (stereo partly specified) :: 7.39

// each compound listed below needs its pIC50
1. CC(C)(C)NC(=O)C(c1ccccc1)N1C(=O)[C@H](CS)NC(=O)[C@@H]1Cc1ccc([N+](=O)[O-])cc1 (stereo partly specified)
2. CC(C)(C)NC(=O)C(c1ccc(Oc2ccccc2)cc1)N1C(=O)[C@H](CS)NC(=O)[C@@H]1Cc1ccc([N+](=O)[O-])cc1 (stereo partly specified)

Solution:
1: 7.60; 2: 6.97

* * *

target: Interstitial collagenase (Homo sapiens)
readoutKind: IC50 (nM)
Answers are plain numbers, in nM.

Worked examples, 5 compounds total:
COc1ccc(C(C(=O)NC(C)(C)C)N2C(=O)[C@H](CS)NC(=O)[C@@H]2Cc2ccc([N+](=O)[O-])cc2)cc1 (stereo partly drawn) :: 21
COc1ccc(CN2C(=O)[C@H](CS)NC(=O)[C@@H]2Cc2ccccc2)cc1 :: 110
CCCN1C(=O)[C@H](CS)NC(=O)[C@@H]1Cc1ccc([N+](=O)[O-])cc1 :: 65
O=C1N[C@@H](CS)C(=O)N(Cc2ccc3ccccc3n2)[C@H]1Cc1ccc([N+](=O)[O-])cc1 :: 74
CC(C)(C)NC(=O)C(c1ccc(-c2ccccc2)cc1)N1C(=O)[C@H](CS)NC(=O)[C@@H]1Cc1ccc([N+](=O)[O-])cc1 (stereo partly drawn) :: 102

Take each entry in turn and give its IC50.
1. CC(C)(C)NC(=O)C(C1CC1)N1C(=O)[C@H](CS)NC(=O)[C@@H]1Cc1ccc([N+](=O)[O-])cc1 (stereo partly drawn)
2. CC(C)(C)NC(=O)C(Cc1ccccc1)N1C(=O)[C@H](CS)NC(=O)[C@@H]1Cc1ccc([N+](=O)[O-])cc1 (stereo partly drawn)
3. CCCCCCCC(C(=O)NC(C)(C)C)N1C(=O)[C@H](CS)NC(=O)[C@@H]1Cc1ccc([N+](=O)[O-])cc1 (stereo partly drawn)

Solution:
1: 37; 2: 37; 3: 36

The origin of these recorded values is ChEMBL document CHEMBL1132120.
